- measured.target: Norovirus GII.2 (Snow Mountain virus) VLP, capsid protein VP1 (Snow Mountain virus (Norovirus GII.2), UniProt Q80RD6 Q80RD6:1-542)
- method.summary: ELONA; ELASA, RT, 3 ug/ml VLP; T/N 12.9 at 1 uM (Table 5)
- measurement.context: chain copies: 180, label: 5' biotin
metric: Kd

QUERY: Using the record for SMV-19 (ssDNA) DNA: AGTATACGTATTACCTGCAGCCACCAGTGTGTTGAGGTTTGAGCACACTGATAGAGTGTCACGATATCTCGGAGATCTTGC , state its measured Kd.
RESULT: ~191 nM
